- experiment-notes: Human HepG2 cell viability assay in 384 well format
- Assay type: toxicity, cell-based
- Design: dose 125 nL, time 70.5 hour; concentration not given beside the values
- experimental-context: HepG2 cells, read-out: Inhibition
property: cytotoxicity at 70.5 h (%)
Expressed in %, but write only the number.

Below, 10 molecules whose answers are already recorded.
{"columns": ["molecule", "property", "measured-number"],
 "data": [
  ["c1ccc2oc(CCCN3CCCC3Cn3cncn3)nc2c1 (configuration not stated)", "cytotoxicity at 70.5 h", -15.6],
  ["COc1cccc(CCC(=O)N2CCN(CC(C)(C)O)CC2)c1", "cytotoxicity at 70.5 h", 10.1],
  ["FC(F)Oc1ccc(CNCc2cc(Br)c3c(c2)OCO3)cc1", "cytotoxicity at 70.5 h", -6.89],
  ["CN(C)C(=O)c1ccc2c(c1)N(C)C(CC(=O)NCCC(C)(C)C)CO2 (configuration not stated)", "cytotoxicity at 70.5 h", -5.81],
  ["CCC[C@H]1CN(c2nccc(OC)n2)C[C@@H]1NC(=O)C1CCOCC1", "cytotoxicity at 70.5 h", -6.8],
  ["CCc1ccc(C2c3nc[nH]c3CCN2Cc2nccn2CC)nc1 (configuration not stated)", "cytotoxicity at 70.5 h", 33.1],
  ["CN1CCCN(C(=O)NCc2csc(Br)c2)CC1", "cytotoxicity at 70.5 h", -6.63],
  ["COc1ccccc1OCCN1CCCC(c2cc(C(N)=O)[nH]n2)C1 (configuration not stated)", "cytotoxicity at 70.5 h", -9.71],
  ["CC(C)CCN1CN=C(NS(=O)(=O)c2ccc(F)cc2)NC1", "cytotoxicity at 70.5 h", -8.69],
  ["Cc1ccc(C2C3=C(COC3=O)Nc3[nH]nc(C)c32)cc1C (configuration not stated)", "cytotoxicity at 70.5 h", -3.38]
]}

Input: // cytotoxicity at 70.5 h lookup, key: O=C(NCC1CC1)[C@@H]1C[C@@H]2OCCN[C@@H]2C1
Output: -2.73

Input: // cytotoxicity at 70.5 h lookup, key: O=C(CN(Cc1ccccc1)CC1CCOCC1)NC(=O)NC1CC1
Output: 11.8

Input: // cytotoxicity at 70.5 h lookup, key: c1cc2c(cc1-n1nc(C3CC3)nc1-c1csnn1)OCCO2
Output: 2.73

Input: // cytotoxicity at 70.5 h lookup, key: COc1ccc(OCCNc2cccc(C(=O)N3CCOCC3)c2)cc1
Output: -3.69

Input: // cytotoxicity at 70.5 h lookup, key: O=S(=O)(c1cccc(F)c1)N1CC[C@H]2[C@H]1CCN2c1ncccn1
Output: 1.7

Input: // cytotoxicity at 70.5 h lookup, key: O=C(O)c1cc(S(=O)(=O)Nc2cccc3c2OCCO3)c(Cl)cc1F
Output: -124

====

cytotoxicity at 70.5 h values by entry
- experiment-notes: Human HepG2 cell viability assay in 384 well format
- Type: toxicity, cell-based
- Design: dose 125 nL, time 70.5 hour; concentration not given beside the values
- experimental-context: HepG2 cells, read-out: Inhibition
Expressed in %, but write only the number.

Below, 5 molecules whose answers are already recorded.
{"columns": ["molecule", "property", "measured-number"],
 "data": [
  ["O=S(=O)(C1CC1)N1CCn2cc(CNc3ccccn3)nc2C1", "cytotoxicity at 70.5 h", -0.935],
  ["Cc1noc(Cl)c1CCC(=O)N1CCCCC1Cn1cccn1 (stereo unspecified)", "cytotoxicity at 70.5 h", 1.4],
  ["Nc1nc2c(c(NCc3nc(-c4ccncc4)n[nH]3)n1)CCCC2", "cytotoxicity at 70.5 h", -0.22],
  ["COCCN1C(=O)[C@]2(CC[C@@H]3CN(Cc4ccccc4F)C[C@@H]32)N=C1C", "cytotoxicity at 70.5 h", -9.72],
  ["CSCCN1CCN(c2nc(N)ncc2C)CC1", "cytotoxicity at 70.5 h", 21.4]
]}

Consider the additional molecule presented here.
Input: // cytotoxicity at 70.5 h lookup, key: Cc1nc(N2CCC(O)(c3ccc(F)cc3)CC2)c2c(C)nn(C)c2n1
Output: -3.16
